Source: patent US4536397A

System: Staphylococcus aureus
Assay: MIC, tube dilution method
Assay type: cell-based
Details: strain (SM, STH)r; BHI broth
Starred links: 1 amine or outer side, 2 acyl side, 3 side chain; linkers in the order of their positions; H or OH if unused. Positions of bridges follow the written chain, without caps; N, C: chain ends. Non-standard residues stand in square brackets, D forms with d. Residues, ends and D or L forms follow the SMILES beside them. ξ: configuration not given here. *: point of attachment. X2 = CC(C)[C@H](C)[C@@H](C(=O)[*:2])N(C)[*:1]; NMeLeu(3ξ-Me) = CN[C@H](C(=O)O)C(C)C(C)C; d(cisHyp) = O=C(O)[C@H]1C[C@@H](O)CN1; X1 = CC(C)C(C)C(C(=O)[*:2])N(C)[*:1]; Picolinoyl(3-OH) = O=C(c1ncccc1O)*; NMePhg = CN[CH](C(=O)O)c1ccccc1; Thr(3ξ) = CC(O)[C@H](N)C(=O)O; Hyp = O=C(O)[CH]1C[CH](O)CN1; Abu = CC[CH](N)C(=O)O; Sar = CNCC(=O)O
Collected MIC values appear next to each entry.
Express your answer in µg/mL, writing the number without its unit.

Known MIC results, listed for orientation:
INSERT INTO results (compound, tested_target, quantitative_result) VALUES
  ('CC(C)CC1NC(=O)C(NC(=O)c2ncccc2O)C(C)OC(=O)C(c2ccccc2)N(C)C(=O)C(C)NC(=O)C(C(C)C(C)C)N(C)C(=O)CN(C)C(=O)C2CCCN2C1=O (stereo not shown) [NV II, neoviridogrisein II] ({Picolinoyl(3-OH)}-TLP[Sar][X1]A[NMePhg]; ester 1-C; configuration not given here)', 'Staphylococcus aureus', 0.2),
  ('CC[C@@H]1NC(=O)[C@H](C(C)C(C)C)N(C)C(=O)CN(C)C(=O)[C@H]2CCCN2C(=O)[C@@H](CC(C)C)NC(=O)[C@@H](NC(=O)c2ncccc2O)C(C)OC(=O)[C@H](c2ccccc2)N(C)C1=O (stereo partly drawn) [NV I, neoviridogrisein I] ({Picolinoyl(3-OH)}-[Thr(3ξ)][dL][dP][Sar][NMeLeu(3ξ-Me)][Abu][NMePhg]; ester 1-C)', 'Staphylococcus aureus', 0.4),
  ('CC(C)C[C@H]1NC(=O)[C@@H](NC(=O)c2ncccc2O)[C@@H](C)OC(=O)[C@H](c2ccccc2)N(C)C(=O)[C@H](C)NC(=O)[C@H]([C@@H](C)C(C)C)N(C)C(=O)CN(C)C(=O)[C@H]2C[C@@H](O)CN2C1=O [VG, viridogrisein] ({Picolinoyl(3-OH)}-T[dL][d(cisHyp)][Sar][X2]A[NMePhg]; ester 1-C)', 'Staphylococcus aureus', 0.4);

Next:
Data request: State its MIC: CCC1NC(=O)C(C(C)C(C)C)N(C)C(=O)CN(C)C(=O)C2CC(O)CN2C(=O)C(CC(C)C)NC(=O)C(NC(=O)c2ncccc2O)C(C)OC(=O)C(c2ccccc2)N(C)C1=O (stereo not shown) [NV III, neoviridogrisein III] ({Picolinoyl(3-OH)}-TL[Hyp][Sar][X1][Abu][NMePhg]; ester 1-C; configuration not given here)
Data returned: 0.2
